- Tested on: HT-29
- Method notes: NCI tumour cell line growth inhibition, 48 h
Active and inactive are the calls of the source. No stated cut-off is given here; in the data, active = GI50 up to about 1.1 µM and inactive = higher.
Outcome codes: active, inactive

1. CCN1C[C@]2(COC)[C@H](O)C[C@H](OC)[C@]34C1[C@H]([C@H](OC)[C@H]23)[C@]1(OC(C)=O)[C@H]2[C@@H](OC(=O)c3ccccc3)[C@](O)(C[C@H]24)[C@@H](OC)[C@@H]1O	inactive
2. CCCCCCCCC(=O)NCCN(CCN)C(=O)CCCCCCCC	inactive
3. NC(=S)N/N=C\CC(O)(C(F)(F)F)C(F)(F)F	inactive
4. NNC(=O)c1nn[nH]c1SSc1[nH]nnc1C(=O)NN	inactive
5. COc1cccc(/C=C/C(=O)N2CC(CCl)c3c2cc(N)c2ccccc32)c1 (stereo unspecified)	active
6. CCCCNC1=C2C(=O)NN=C2CO1	inactive
7. CN(NC(=O)c1cccs1)C1=NCCCN1	inactive
8. C=CCN1CCC2(CC1)NC(=O)c1ccccc1O2	inactive
9. CC1CNC(NS(=O)(=O)c2cc(C(=O)Nc3ccc(Cl)cc3)c(Cl)cc2S)=NN1 (stereo unspecified)	inactive
10. CCN(CCCl)CCCCNc1c2ccccc2nc2ccc(OC)cc12	active
11. CCN(CC)c1oc(N(CC)CC)c(C(=O)Nc2ccccn2)c(=O)c1C(C)=O	inactive
12. C=C[C@]1(C)C[C@@H](OC(=O)CO)[C@@]2(C)[C@H](C)CC[C@]3(CCC(=O)[C@H]32)[C@@H](C)[C@@H]1O	inactive
13. COc1ccc(N)c(C(O)CCNC(C)=O)c1 (stereo unspecified)	inactive
14. CN(CCC(=O)O)S(=O)(=O)c1ccccc1	inactive
15. NCCn1cnc2nc(NC(=O)c3ccccc3)[nH]c(=O)c21	inactive
16. c1ccc(B2OCC(C3OB(c4ccccc4)OC4COB(c5ccccc5)OC43)O2)cc1 (stereo unspecified)	inactive
17. CCN1C(=O)c2cc(OC)c(OC)cc2C(=O)C12OC(=O)c1cc3c(cc12)OCO3 (stereo unspecified)	inactive
18. Cc1cc2cc3c(Cl)c(CCCl)c(C)nc3cc2c(Cl)c1CCCl	inactive
19. CCOC(=O)c1ccc2nc3n(c2c1)C(c1c(F)cccc1F)SC3 (stereo unspecified)	inactive
20. CC1(C)N=c2[nH]cnc2=C(C(N)=O)N1	inactive
21. COC(=O)/C=C/C(=O)C1C(C(=O)OC)C2(C(=O)OC)CCC1(C(=O)OC)N2 (stereo unspecified)	inactive

* * *

Reported values of GI50 for individual entries
- Test system: TK-10
- Method notes: NCI tumour cell line growth inhibition, 48 h
The source made the active and inactive calls. No stated cut-off is given here; in the data, active = GI50 up to about 1.1 µM and inactive = higher.
Measurement label: GI50

1. COc1cc2nc(-c3cccs3)nc(N3C(c4ccc(O)cc4)=NNC(=O)c4ccccc43)c2cc1OC	30.5 µM (inactive)
2. CC(C)C(Nc1c2ccccc2[n+](C)c2ccccc12)C(=O)O (stereo not given)	> 100 µM (inactive)
3. Clc1cc(C(c2cc(Cl)sc2Cl)c2cc(Cl)sc2Cl)c(Cl)s1	> 100 µM (inactive)
4. CC(=O)N(C)c1ccc(/N=C/N(C)C)cc1	> 100 µM (inactive)
5. CNC1=C(C)C(=O)C(C)=C(C(C)(C)CC(=O)n2cc(F)c(=O)[nH]c2=O)C1=O	> 59.3 µM (inactive)

* * *

- Test system: DU-145
- Method notes: NCI tumour cell line growth inhibition, 48 h
The source made the active and inactive calls. Cut-off read from the data, not from the text of the source: active = GI50 up to about 1.1 µM and inactive = higher.
Reported values of GI50 for individual entries
Measurement label: GI50

1) O=C(OCc1ccccc1)N1CCNCCNCC1	> 100 µM (inactive)
2) CC1CNC(NS(=O)(=O)c2cc(C(=O)Nc3ccc(Cl)cc3)c(Cl)cc2S)=NN1 (stereo unspecified)	30.2 µM (inactive)
3) CCP(=O)(CC)C(Cl)(Cl)C(O)C(C)(C)C (stereo unspecified)	> 100 µM (inactive)
4) Nc1ccc2c(c1)NC(=O)[C@@H]1CCCN1C2=O	> 100 µM (inactive)
5) COc1cc(OC)c(OC)cc1/C=C1\C=Cc2ccccc21	28.8 µM (inactive)
6) COC(=O)Cc1c([C@@H]2Nc3ccccc3[C@H]2CC(=O)OC)[nH]c2ccccc12	59.4 µM (inactive)
